target: T1, Human ACVR2A (human, UniProt P27037 20-135, limits assumed); experiment: ELISA; note: test concentration or dose not given here
T1 construct: also called activin receptor, type II A
T1 sequence (P27037 20-135 limits assumed): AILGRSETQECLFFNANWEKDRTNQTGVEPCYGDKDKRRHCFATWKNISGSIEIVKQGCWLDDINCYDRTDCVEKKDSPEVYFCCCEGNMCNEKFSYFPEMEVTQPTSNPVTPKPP
In this section we review reported optical density values for a set of binders.
// units = OD; emit number, no label

Binder	Assay Endpoint	Recorded Result
367_B03 (antibody, V domains shown, VH/VL only) VH: EVQLLESGGGLVQPGGSLRLSCAASGFTFSSYGMNWVRQAPGKGLEWVAGINYNGGYKSYADSVKGRFTISRDNSKNTLYLQMNSLRAEDTAVYYCARSANWHDTALDYWGQGTLVTVSS VL: DIQMTQSPSSLSASVGDRVTITCRASQSILTYLNWYQQKPGKAPKLLIYAATSLASGVPSRFSGSGSGTDFTLTISSLQPEDFATYYCQQSYNLPLTFGGGTKVEIK	optical density	2.48
368_F06 (antibody, V domains shown, VH/VL only) VH: EVQLLESGGGLVQPGGSLRLSCAASGFTFDDYSMHWVRQAPGKGLEWVANINYNSGYTGYADSVKGRFTISRDNSKNTLYLQMNSLRAEDTAVYYCARGATWHDTHLDYWGQGTLVTVSS VL: DIQMTQSPSSLSASVGDRVTITCRASQSILSYLNWYQQKPGKAPKLVIYATTSRASGVPSRFSGSGSGTDFTLTISSLQPEDFATYYCQQSYENPLTFGGGTKVEIK	optical density	1.6
370_F12 (antibody, V domains shown, VH/VL only) VH: EVQLLESGGGLVQPGGSLRLSCAASGFTFSDYSMNWVRQAPGKGLEWVANINYNGGYTGYADSVKGRFTISRDNSKNTLYLQMNSLRAEDTAVYYCARGATWHDTHLDYWGQGTLVTVSS VL: DIQMTQSPSSLSASVGDRVTITCRASQSILSYLNWYQQKPGKAPKLLIYAASSLQSGVPSRFSGSGSGTDFTLTISSLQPEDFATYYCQQSYDSPLTFGGGTKVEIK	optical density	3.55
369_E05 (antibody, V domains shown, VH/VL only) VH: EVQLLESGGGLVQPGGSLRLSCAASGFTFSDYGMNWVRQAPGKGLEWVANINYNGGYKSYADSVKGRFTISRDNSKNTLYLQMNSLRAEDTAVYYCARGATWHDTHLDYWGQGTLVTVSS VL: DIQMTQSPSSLSASVGDRVTITCRASQSILTYLNWYQQKPGKAPKLLIYAATSLASGVPSRFSGSGSGTDFTLTISSLQPEDFATYYCQQSYETPLTFGGGTKVEIK	optical density	1.41
369_E08 (antibody, V domains shown, VH/VL only) VH: EVQLLESGGGLVQPGGSLRLSCAASGFTFSSYSMNWVRQAPGKGLEWVASINYNSGYTGYADSVKGRFTISRDNSKNTLYLQMNSLRAEDTAVYYCARGATWHDTHLDYWGQGTLVTVSS VL: DIQMTQSPSSLSASVGDRVTITCRASQSILTYVNWYQQKPGKAPKLLIYAATSRASGVPSRFSGSGSGTDFTLTISSLQPEDFATYYCQQSYDSPLTFGGGTKVEIK	optical density	1.03
366_F05 (antibody, V domains shown, VH/VL only) VH: EVQLLESGGGLVQPGGSLRLSCAASGFTFSSYSMNWVRQAPGKGLEWVANINYNSGYKSYADSVKGRFTISRDNSKNTLYLQMNSLRAEDTAVYYCARSANWHDTHLDYWGQGTLVTVSS VL: DIQMTQSPSSLSASVGDRVTITCRASQSILTYLNWYQQKPGKAPKLLIYAATSRASGVPSRFSGSGSGTDFTLTISSLQPEDFATYYCQQSDNTPLTFGGGTKVEIK	optical density	2.19
376_A07 (antibody, V domains shown, VH/VL only) VH: EVQLLESGGGLVQPGGSLRLSCAASGFTFSSYSMNWVRQAPGKGLEWVSGINYNGGYKSYADSVKGRFTISRDNSKNTLYLQMNSLRAEDTAVYYCARGATWHDTHLDYWGQGTLVTVSS VL: DIQMTQSPSSLSASVGDRVTITCRASQSILTYLNWYQQKPGKAPKLLIYAATSRASGVPSRFSGSGSGTDFTLTISSLQPEDFATYYCQQSYDSPLTFGGGTKVEIK	optical density	3.7
366_B10 (antibody, V domains shown, VH/VL only) VH: EVQLLESGGGLVQPGGSLRLSCAASGFTFSSYGMNWVRQAPGKGLEWVSGINYNSGYTSYADSVKGRFTISRDNSKNTLYLQMNSLRAEDTAVYYCARSANWHDTALDYWGQGTLVTVSS VL: DIQMTQSPSSLSASVGDRVTITCRASQSIISYLNWYQQKPGKAPKLLIYAATSRASGVPSRFSGSGSGTDFTLTISSLQPEDFATYYCQQSYDNPLTFGGGTKVEIK	optical density	2.33

## Task // query optical density value for entry 365_H11 (antibody, V domains shown, VH/VL only) VH: EVQLLESGGGLVQPGGSLRLSCAASGFTFSSYSMNWVRQAPGKGLEWVSGINYNSGYTGYADSVKGRFTISRDNSKNTLYLQMNSLRAEDTAVYYCARSANWHDTALDYWGQGTLVTVSS VL: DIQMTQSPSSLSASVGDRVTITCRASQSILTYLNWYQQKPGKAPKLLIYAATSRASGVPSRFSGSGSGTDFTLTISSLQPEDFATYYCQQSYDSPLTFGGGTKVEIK
## Result 3.24

## Task // query optical density value for entry 374_H05 (antibody, V domains shown, VH/VL only) VH: EVQLLESGGGLVQPGGSLRLSCAASGFTFSSYSMNWVRQAPGKGLEWVAGINYNGGYTSYADSVKGRFTISRDNSKNTLYLQMNSLRAEDTAVYYCARGATWHDTHLDYWGQGTLVTVSS VL: DIQMTQSPSSLSASVGDRVTITCRASQSILSYVNWYQQKPGKAPKLVIYAATSRASGVPSRFSGSGSGTDFTLTISSLQPEDFATYYCQQSYDNPLTFGGGTKVEIK
## Result 3.31
